Recorded β4Gal-T2 activity with acceptor substrate by entry
- Subject of test: β4Gal-T2 (Homo sapiens, UniProt O60909)
- Construct: An expression construct designed to encode amino acid residues 31-372 of β4Gal-T2 was prepared by RT-PCR; secretion signal of vector pAcGP67 (gp67 leader; own knowledge of the vector) (N); made in house; host or cells: Sf9 (Spodoptera frugiperda) cells, baculovirus; unpurified culture supernatant
- Sequence (O60909 31-372): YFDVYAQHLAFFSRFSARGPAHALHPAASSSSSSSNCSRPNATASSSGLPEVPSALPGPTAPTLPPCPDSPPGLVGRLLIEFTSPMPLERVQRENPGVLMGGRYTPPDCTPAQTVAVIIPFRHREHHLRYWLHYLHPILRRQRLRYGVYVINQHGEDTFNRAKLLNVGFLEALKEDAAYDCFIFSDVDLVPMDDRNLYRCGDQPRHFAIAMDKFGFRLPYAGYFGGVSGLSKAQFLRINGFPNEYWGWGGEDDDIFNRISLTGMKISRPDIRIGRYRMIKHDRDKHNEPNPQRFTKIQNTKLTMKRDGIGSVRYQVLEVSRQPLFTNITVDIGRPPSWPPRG
- Procedure summary: β4Gal-T2 galactosyltransferase activity assay (soluble enzyme, media of infected Sf9 cells)
- Assay type: biochemical
- Measurement setup: substrate concentration 9 mM; media of infected Sf9 cells; background subtracted
Parameter: β4Gal-T2 activity with acceptor substrate (nmol/min/mL)

INSERT INTO results (molecule, value_units, meas_value) VALUES
  ('CC(=O)N[C@@H]1[C@@H](O)[C@H](O)[C@@H](CO)O[C@H]1Sc1ccc([N+](=O)[O-])cc1 [p-Nph-1-thio-β-D-GlcNAc]', 'nmol/min/mL', 0.2),
  ('CC(=O)N[C@H]1[C@H](Oc2ccc([N+](=O)[O-])cc2)O[C@H](CO)[C@@H](O)[C@@H]1O [p-Nph-β-D-GlcNAc]', 'nmol/min/mL', 0.9),
  ('CC(=O)N[C@H]1[C@H](Oc2ccc3c(C)cc(=O)oc3c2)O[C@H](CO)[C@@H](O)[C@@H]1O [4-Me-lumb-β-D-GlcNAc]', 'nmol/min/mL', 0.4),
  ('CC(=O)N[C@H]1C(O)O[C@H](CO)[C@@H](O)[C@@H]1O (stereo partly drawn) [D-GlcNAc]', 'nmol/min/mL', 4.8),
  ('CC(=O)N[C@H]1[C@@H](Oc2ccccc2[N+](=O)[O-])O[C@H](CO)[C@@H](O)[C@@H]1O [o-Nph-α-D-GlcNAc]', 'nmol/min/mL', 1.5),
  ('CC(=O)N[C@H]1[C@@H](OCc2ccccc2)O[C@H](CO)[C@@H](O)[C@@H]1O [Bz-α-D-GlcNAc]', 'nmol/min/mL', 1.7),
  ('CC(=O)N[C@H]1[C@H](OCc2ccccc2)O[C@H](CO)[C@@H](O)[C@@H]1O [Bz-β-D-GlcNAc]', 'nmol/min/mL', 1.5);

----------
- Subject of test: β4Gal-T2 (Homo sapiens)
- Construct: An expression construct designed to encode amino acid residues 31-372 of β4Gal-T2 was prepared by RT-PCR; secretion signal of vector pAcGP67 (gp67 leader; own knowledge of the vector) (N); made in house; host or cells: Sf9 (Spodoptera frugiperda) cells, baculovirus; unpurified culture supernatant
- Procedure summary: β4Gal-T2 galactosyltransferase activity assay (soluble enzyme, media of infected Sf9 cells)
- Assay type: biochemical
- Measurement setup: substrate concentration 3 mM; media of infected Sf9 cells; background subtracted
Short version: β4Gal-T2 activity with acceptor substrate at least 0.8 nmol/min/mL is true (1), less is false (0).

INSERT INTO results (compound, class) VALUES
  ('COC1O[C@H](CO)[C@H](O)[C@H](O[C@@H]2O[C@H](CO)[C@H](O)[C@H](O)[C@H]2NC(C)=O)[C@H]1O (stereo partly shown)', 'true (1)'),
  ('O=[N+]([O-])c1ccccc1O[C@@H]1O[C@H](CO)[C@H](O)[C@H](O)[C@H]1O', 'false (0)'),
  ('CC(=O)N[C@H]1[C@H](Oc2ccccc2[N+](=O)[O-])O[C@H](CO)[C@H](O)[C@@H]1O', 'false (0)'),
  ('CC(=O)N[C@H]1[C@H](Oc2ccc3c(C)cc(=O)oc3c2)O[C@H](CO)[C@H](O)[C@@H]1O', 'false (0)'),
  ('CC(=O)N[C@H]1[C@H](OCc2ccccc2)O[C@H](CO)[C@@H](O)[C@@H]1O', 'true (1)'),
  ('CC(=O)N[C@@H]1[C@@H](O)[C@H](O)[C@@H](CO)O[C@H]1Sc1ccc([N+](=O)[O-])cc1', 'true (1)'),
  ('CC(=O)N[C@H]1[C@H](Oc2ccc([N+](=O)[O-])cc2)O[C@H](CO)[C@@H](O)[C@@H]1O', 'true (1)'),
  ('CC(=O)N[C@H]1[C@H](Oc2ccc3c(C)cc(=O)oc3c2)O[C@H](CO)[C@@H](O)[C@@H]1O', 'false (0)'),
  ('CC(=O)N[C@H]1[C@@H](OCc2ccccc2)O[C@H](CO)[C@@H](O)[C@@H]1O', 'true (1)'),
  ('CC(=O)N[C@H]1C(O)O[C@H](CO)[C@@H](O)[C@@H]1O (stereo partly shown)', 'true (1)'),
  ('Cc1cc(=O)oc2cc(O[C@@H]3O[C@H](CO)[C@H](O)[C@H](O)[C@H]3O)ccc12', 'false (0)'),
  ('COC1OC(COC2OC(CO)C(O)C(O)C2NC(C)=O)C(O)C(O)C1O (stereo not shown)', 'true (1)');

----------
Recorded β4Gal-T2 activity with acceptor substrate by entry
- Subject of test: β4Gal-T2 (Homo sapiens)
- Construct: An expression construct designed to encode amino acid residues 31-372 of β4Gal-T2 was prepared by RT-PCR; secretion signal of vector pAcGP67 (gp67 leader; own knowledge of the vector) (N); made in house; host or cells: Sf9 (Spodoptera frugiperda) cells, baculovirus; unpurified culture supernatant
- Procedure summary: β4Gal-T2 galactosyltransferase activity assay (soluble enzyme, media of infected Sf9 cells)
- Format: biochemical
- Measurement setup: substrate concentration 1 mM; media of infected Sf9 cells; background subtracted
Parameter: β4Gal-T2 activity with acceptor substrate (nmol/min/mL)

INSERT INTO assay_data (compound, subject_of_test, meas_value) VALUES
  ('COC1O[C@H](CO)[C@H](O)[C@H](O[C@@H]2O[C@H](CO)[C@H](O)[C@H](O)[C@H]2NC(C)=O)[C@H]1O (stereo partly drawn)', 'β4Gal-T2 (Homo sapiens)', 5.8),
  ('CC(=O)N[C@H]1C(O)O[C@H](CO)[C@@H](O)[C@@H]1O (stereo partly drawn)', 'β4Gal-T2 (Homo sapiens)', 1.4),
  ('CC(=O)N[C@H]1[C@H](OCc2ccccc2)O[C@H](CO)[C@@H](O)[C@@H]1O', 'β4Gal-T2 (Homo sapiens)', 6.8),
  ('COC1OC(COC2OC(CO)C(O)C(O)C2NC(C)=O)C(O)C(O)C1O (stereo not drawn)', 'β4Gal-T2 (Homo sapiens)', 8.5),
  ('CC(=O)N[C@@H]1[C@@H](O)[C@H](O)[C@@H](CO)O[C@H]1Sc1ccc([N+](=O)[O-])cc1', 'β4Gal-T2 (Homo sapiens)', 1.2),
  ('CC(=O)N[C@H]1[C@H](Oc2ccc3c(C)cc(=O)oc3c2)O[C@H](CO)[C@@H](O)[C@@H]1O', 'β4Gal-T2 (Homo sapiens)', 0.8),
  ('CC(=O)N[C@H]1[C@H](Oc2ccc([N+](=O)[O-])cc2)O[C@H](CO)[C@@H](O)[C@@H]1O', 'β4Gal-T2 (Homo sapiens)', 3.0),
  ('CC(=O)N[C@H]1[C@@H](Oc2ccccc2[N+](=O)[O-])O[C@H](CO)[C@@H](O)[C@@H]1O', 'β4Gal-T2 (Homo sapiens)', 0.4),
  ('CC(=O)N[C@H]1[C@@H](OCc2ccccc2)O[C@H](CO)[C@@H](O)[C@@H]1O', 'β4Gal-T2 (Homo sapiens)', 0.4);
